# System: K4 kissing-loop RNA reporter;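 note: bound reporter read as fluorescence of individual clusters on recovered sequencing chips by microscopy, with normalized cluster intensities fitted with a binding model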
# PROCEDURE DETAILS: apparent KD of K4 kissing-loop reporter; higher = weaker reporter binding
# TEST CONDITIONS: Eterna round: R107; input ligand: theophylline 20 uM
ENDPOINT: apparent KD of K4 kissing-loop reporter (nM)
# unit: nM | format: bare number

{"MACROMOLECULE SEQUENCE": "CGUAGCAGACGAAGGAGCGGCUACCUGAUUCAAGGUGAUGCUUGAGUGAUGUUCAGGUGUAGCCAGGUAGGUCGCGUCUGCUACG [Arg B Ex t9]", "ASSAY SYSTEM": "K4 kissing-loop RNA reporter", "UNIT ABBREVIATION": "nM", "RECORDED RESULT": 180}
{"MACROMOLECULE SEQUENCE": "UUUCGGUUCUGAGGAUAUUCGGACAAAUAUAGUGAUGUUGUAUAAGGAGGAGGGUGUUGGCAGUGCGGAGAAGGCAGACCAGGAU [ExFMNB.W]", "ASSAY SYSTEM": "K4 kissing-loop RNA reporter", "UNIT ABBREVIATION": "nM", "RECORDED RESULT": 878}
{"MACROMOLECULE SEQUENCE": "AAAUUUAUAUUAGAUACCAGUUUAAUGGAUGUAAAUUAUGACAUGAGUGAUGUUCAUGUAAGCCCUUGGCAGCUGGUAUGGGUUU [KL-XTheo-B21]", "ASSAY SYSTEM": "K4 kissing-loop RNA reporter", "UNIT ABBREVIATION": "nM", "RECORDED RESULT": 116}
{"MACROMOLECULE SEQUENCE": "UACUAUAGUGAUGUUAUAGAUAAACCAGAUACCAGUGUAACAUAACACCCUUGGCAGCUGAUGAGGGAACUAUUGAAAACAAUAG [AstroSTH-A#7newdesignED4.86]", "ASSAY SYSTEM": "K4 kissing-loop RNA reporter", "UNIT ABBREVIATION": "nM", "RECORDED RESULT": 223}
{"MACROMOLECULE SEQUENCE": "AGAGUCAGACAAAAGUCUGGCUCAGCCGAAGGAGCGUCCGAAAGGACAGGUAGGUCGCGGUUGCAUGAGUGAUGUUGAUGUUUUU [KL-SSArg-A23]", "ASSAY SYSTEM": "K4 kissing-loop RNA reporter", "UNIT ABBREVIATION": "nM", "RECORDED RESULT": 559}

Task item: Fill in the blank: the reported apparent KD of K4 kissing-loop reporter of CGCAGUGAUGUUGCGAGUAGCUACAGGGAAGGAGCGUGCUAGAGCACAGGUAGGUCGCCCACGCAGUGAUGUUGUGUUAAAGGGU [Exclusion Arginine A GF 12] is ____.
Reply: 149
